# measurementConditions: in acetone, 311.24 K
measuredAttribute: solubility (mole fraction)
Numbers only.

Query: Which value of solubility (mole fraction) has been reported for O=C1C=CC(=O)c2ccccc21 in the records?
Response: 0.0639

----------
# measurementConditions: in toluene, 304.44 K
measuredAttribute: solubility (mole fraction)

Query: Entry under review: O=C1C=CC(=O)c2ccccc21 . Reported solubility (mole fraction)?
Response: 0.0668

----------
# measurementConditions: in toluene, 294.1 K
measuredAttribute: solubility (mole fraction)

Query: Need solubility (mole fraction) of O=C1C=CC(=O)c2ccccc21 , thanks.
Response: 0.0476

----------
# measurementConditions: in acetone, 304 K
measuredAttribute: solubility (mole fraction)
One number for each entry.

Query: Find the recorded solubility (mole fraction) belonging to O=C1C=CC(=O)c2ccccc21 and report it.
Response: 0.0503

----------
# measurementConditions: in n-butanol, 302.1 K
measuredAttribute: solubility (mole fraction)

Query: Please report the recorded solubility (mole fraction) for O=C1C=CC(=O)c2ccccc21 .
Response: 0.00657

----------
# measurementConditions: in toluene, 319.93 K
measuredAttribute: solubility (mole fraction)
Answers are plain numbers.

Query: Look up solubility (mole fraction): O=C1C=CC(=O)c2ccccc21
Response: 0.107

----------
# measurementConditions: in acetone, 318.06 K
measuredAttribute: solubility (mole fraction)
Numbers only.

Query: // lookup solubility (mole fraction) for O=C1C=CC(=O)c2ccccc21
Response: 0.081

----------
# measurementConditions: in toluene, 331.95 K
measuredAttribute: solubility (mole fraction)
Numbers only.

Query: Query (molecule): O=C1C=CC(=O)c2ccccc21 ; field requested: solubility (mole fraction)
Response: 0.153

----------
# measurementConditions: in ethanol, 334.13 K
measuredAttribute: solubility (mole fraction)
One number for each entry.

Query: Given the molecule O=C1C=CC(=O)c2ccccc21 , what is its reported solubility (mole fraction)?
Response: 0.0274

----------
# measurementConditions: in n-butanol, 330.35 K
measuredAttribute: solubility (mole fraction)
Give bare numbers.

Query: Data request, read-out solubility (mole fraction), for O=C1C=CC(=O)c2ccccc21
Response: 0.0307

----------
# measurementConditions: in toluene, 315.25 K
measuredAttribute: solubility (mole fraction)
Numbers only.

Query: Requested field: solubility (mole fraction). Item: O=C1C=CC(=O)c2ccccc21
Response: 0.094

----------
# measurementConditions: in ethanol, 328.25 K
measuredAttribute: solubility (mole fraction)
Give bare numbers.

Query: solubility (mole fraction) for O=C1C=CC(=O)c2ccccc21 ?
Response: 0.0199

----------
# measurementConditions: in toluene, 300.35 K
measuredAttribute: solubility (mole fraction)
One number for each entry.

Query: So what does the record say about solubility (mole fraction) for O=C1C=CC(=O)c2ccccc21 ?
Response: 0.0585

----------
# measurementConditions: in toluene, 327.2 K
measuredAttribute: solubility (mole fraction)
One number for each entry.

Query: Dear colleague, I am looking for the recorded solubility (mole fraction) of the following compound: O=C1C=CC(=O)c2ccccc21
Response: 0.133

----------
# measurementConditions: in acetone, 319.63 K
measuredAttribute: solubility (mole fraction)
Give bare numbers.

Query: Would you mind telling me what solubility (mole fraction) value was observed for O=C1C=CC(=O)c2ccccc21 ?
Response: 0.0856

----------
# measurementConditions: in n-butanol, 312.32 K
measuredAttribute: solubility (mole fraction)
Answers are plain numbers.

Query: I am curious: what solubility (mole fraction) value has been reported for O=C1C=CC(=O)c2ccccc21 ?
Response: 0.012
